- Test Method Notes: yeast display, Sf9 membrane polyspecificity reagent, FACS + sequencing; frameworks hold sequencing errors

{"columns": ["Query Sequence", "polyreactivity (PSR sort gate)"],
 "data": [
  ["QDQLVESGGGLVQAGGSLRLSCAASGLTYYVYSMGWYRQAPGKERELVARITWSGGSTYYADSVKGRFTISRDNAKNTVYLQMNSVKAEDTAVYYSAAEWSEESDYWGQVTQVTVSS", "low polyreactivity"],
  ["QVQLVESGGGLVQAGGSLRLSCPASGRIFTGYAMGWYRQSPGKERELVASISDSGASTYYADSVKGRFTISRDNAKNTVYLQMNSLKPEDTAVYYCAADWTLDTSYGYYADDFWGQGTQVTVSS", "low polyreactivity"],
  ["QVQLVESGGGLVQAGGSLRLSCAASGRIFKYYAMGWYRQAPGKERELVAAISQNGGRTYYADSVKGRFTISRDNAKNTVYLQMNSLKPEDTAVYYCAAGWRSYAGYYQGEFGYWGQGTQVTVSS", "high polyreactivity"],
  ["QVQLVESGGGLVQAGGSLRLSCAASGRTFASYTMGWYRQPPGKESELVAAINARGGNTYYADSVKGRFTISRDNAKNTVYLQMNSLKPEDTAVYYCAARQKRFKVAAGYDYWGQGTQVTVSS", "high polyreactivity"],
  ["QVQLVESGGGLVQAGGSLRLSCAASGFTFYKYAMGWYRQAPGKERELVAAINWSGGSTYYADSVKGRFTISRDNAKNTVYLQMNSLKPEDTAVYYCAAERGTTYAYDYWGQGTQVTVSS", "high polyreactivity"]
]}

====

- Test Method Notes: yeast display, Sf9 membrane polyspecificity reagent, FACS + sequencing; frameworks hold sequencing errors

{"columns": ["Query Sequence", "polyreactivity (PSR sort gate)"],
 "data": [
  ["QVQLVESGGGLVQAGGSLRLSCAASGFTFVYYVMGWYRQAPGKERELVAAINAGGGSTYYADSVKGRFTISRDNAKNTVYLQMNSLKPEDTAVYYCYARVRVRLGRNWSSYYYWGQGTQVNVSS", "high polyreactivity"],
  ["QVQLVESGGGLVQAGGSLRLSCAASGFTFIGNAMGWYRQAPGKERELVAAISWRGGSTYYADSVKGRFTISRDNAKNTVYLQMNSLKPEDTAVYYCNKVPRRVSRSERDYWGQGTQVTVSS", "high polyreactivity"],
  ["QVQLVESGGGLVQAGGSLRLSCAASGSTFFIKAMGWYRQAPGKERELVAAITSTDSTTYADSVKGRFTISRDNAKNTVYLQMNSLKPEDTAVYYCAKETIGQDPVSGAWARHEYDYWGQGTQVTVSS", "low polyreactivity"],
  ["QVQLVESGGGIVQAGGSLRLSCAASGRTLSKNAMGWYRQAPGKERELVATISSVGRTNYADSVKGRFTISRDNAKNTVYLQMNSLKPEDTAVYNCAARRFRGSYYWGQGTQVTVSS", "high polyreactivity"],
  ["QVQLVESGGGLVQAGGSLRLSCAASGTTFYYNAMGWYRQAPGKERELVARISRSGGSTYADSVKGRFTISRDNAKNTVYLQMNSLKPEDTAVYYCNADAYGTPEFTSYAVRYDYWGQGTQVTVSS", "low polyreactivity"],
  ["QVQLLESGGGLVQAGGSLRLSCAASGRTFTYYAMGWYRQAPGKERELVASISTTGRTYYADSVKGRFTISRDNAKNTVYLQMNSLKPDDTAVYYCATRSRYYYDYWGQGTQVTVSS", "high polyreactivity"],
  ["QVQLVESGGGLVQAGGSLRLSCAASGYTFPIYAMGWYRQAPGKEREVVATISSGGRTNYADSVKGRFTISRDNAKNTVYLQMNSLKPEDTAVYYCNARRLGWHALYLYDYWGQGTQVTVSS", "high polyreactivity"],
  ["QVHLVESGGGLVQAGGSLRLSCAASGSTFHKYALGWYRQAPGKEREYVAAISWSGGSTYYADSVKGRFTISRDNAKYTVYLQMNSLKPEDTAVYFCAARGNRYAYPRKYDYWGQGTQVTVSS", "high polyreactivity"],
  ["QVQLVESGGGLVKAGGSLRLSCAASGSIITIYAMGWYRQAPGKERDWVATITGGGGSTYYADSVKGRFTISRDNAKNTVYFKMNSLKPEETAVYYCAADSPGWSYTSRSYDYWGQGTQVTVSS", "low polyreactivity"],
  ["HVQLVESGGGLVQAGGSLRLSCAASGRIFSVYAMGWYRQAPGKEWEFVAAITTNGGSTYYADSVKGRFTISRDNAKNTVYLQMNSLKPEDTAVYYCAAYRSRVNGYRVDYWGQGTQVTVSS", "high polyreactivity"],
  ["QVQLVESGGGLVQAGGSLRLICAASGFIFGKYVMGWYRQAAGKERELVAAITSSGGRTYYADSVKGRFTISRDNAKNTVYLQMNSLKPEDTGVYYCAARYVSYWPWFEYDYWGQGTQVTVSS", "high polyreactivity"],
  ["QVQLVESGGGLVQAGGSLRLSCAASGSTYRTYPMGWYRQAPGKERELVASISYRSGRTYYADSVKGRFTISRDNAKNTVYLPMNSLKPEDTAVYYCNSRMYGVISRMDYWGQGTQVTVSS", "high polyreactivity"],
  ["QVQLVESGGGLVQAGGSLRLSCAASGYTFFYYAMGWYRQAPGKERELVASISWNGGSTYYADSVKGRFTISRDNGKNTVYLQMNSLKPEDTAVYYCAADSPRPRLTSYGYIGGEYYYWGQGTQVTVSS", "low polyreactivity"],
  ["QVQLVESGGGLVQAGGSLRLSCAASGSTFWYYDMGWYRQAPGQERALVAASTSGGRTNYADSVKGRVTISRDKAKNTVYLQMNSLKPEDTAVYYCARTSYRFYRKRYYWGQGTQVTVSS", "high polyreactivity"],
  ["QVQLVESGGGLVQAGGSLRLSCAASGSTFGGNAMGWYRQAPGKERELVAVISKRGGSTYYADSVKGRFTISRDNAKNTVYLQMNSLKAEDTAVYYCAATYSRYWSPTYDYWGEGTQVTVSS", "high polyreactivity"],
  ["QVQLVESGGGLDQAVGSLRLSCAASGSIFKPYAMGWYRQAPGKERELVAGITAGGGSTYYADSVKGRFTISRDNAKNTVYLQMNSLKPEDTAVYYCSVDPYNIFTDDIVENDYWGQGTQVTVSS", "low polyreactivity"],
  ["QVQLVESGGGLVQAGGSLRLSCAASGRIFLVNAMGWYRQAPGKERELVAAINGSGGSTYYADSVKGRFTISRDNAKNTVYLQMNSLKPEDTAVYYCAAKYVYSVGNYRYDYWGQGTQVTVSS", "low polyreactivity"],
  ["QVQLVESGGGLVQAGGSLRLSCAASGSTFGIYAMGWYRQAPGKERELVATISWGGGDTYYADSVKGRFTISRDNAKNTVYLQMNSLKPEDTAVYYCAADLWYGKTSGSTTPDPYDYWGQGTQVTVSS", "low polyreactivity"],
  ["QVQLVESGGGLVQAGGSLRLSCAASGITFQHYAMGWYRQAPGKERELVAAITWRGSNTYYADSVKGRFTISRDNAKNTVYLQMNSLKPEDTAVYYCAAVLSLRSRNYWGHGTQVTVSS", "high polyreactivity"],
  ["QVHLVESGGGLVHAGGSLRLSCAASGSTFYPYAMGWYRQAPGKERELVAAISISGTTYYADSVKGRFTISRDNAKNTVYLQMNCLKPEDTAVYYCAKRAWVRRYPGRVGYNMYYWGQGTQVSVSS", "high polyreactivity"],
  ["QVQLVESGGGLVQAGGSLRLSCAASGRIFRGYAMGWYRQAPGKERELVAAISRRGGSTSYADSVKGRFTISRDNAKNTVYLQMNSLKPEDTAVYYCAVDYSKNGDDYWGQGTQVTVSS", "high polyreactivity"]
]}
